- EXPERIMENTAL_PROTOCOL: Compound solubility in media
- Assay type: physicochemical
- RECORDED_CONDITIONS: DMEM+2% FBS cell culture media, 37 °C, plasma or biological fluid, kinetic from dmso stock; DMEM+2% FBS media
MEASUREMENT_TYPE: solubility

Examples with answers:
COc1cc(C(=O)Nc2ccn([C@@H]3O[C@H](CO)[C@@H](O)C3(F)F)c(=O)n2)cc(OC)c1OC [GTB, N^4-(3,4,5-Trimethoxybenzoyl)gemcitabine] = > 500 µM
Nc1ccn([C@@H]2O[C@H](CO)[C@@H](O)C2(F)F)c(=O)n1 [gemcitabine, reference compound] = > 500 µM
COc1ccc(C(=O)Nc2ccn(C3O[C@H](CO)[C@@H](O)C3(F)F)c(=O)n2)c(OC)c1OC (stereo partly shown) [VV-022] = > 500 µM

Pending compound:
The recorded solubility for entry O=C(Nc1ccn(C2O[C@H](CO)[C@@H](O)C2(F)F)c(=O)n1)c1ccc(Cl)cc1Cl (stereo partly shown) [VV-006] equals < 500 µM
